Test system: SK-MEL-5 melanoma
Test: NCI tumour cell line growth inhibition, 48 h
measurement-kind: TGI

                                    compound  measurement_kind  value_observed
 0                   CCOC(=O)CC1=CSC2=NCCN12               TGI        > 100 µM
 1  Cc1sc2nc3n(c(=O)c2c1C)N=C(c1ccc(Cl)cc1)CS3               TGI        > 100 µM
 2  [N-]=[N+]=NC1C(Br)C(=O)NC(=O)N1[C@H]1C[C@H](O)[C@@H](CO)O1 (stereo partly drawn)               TGI        > 100 µM
 3  COC(=O)[C@H](Cc1ccccc1)NC(=O)N1CCN(C(=O)N[C@@H](Cc2ccccc2)C(=O)OC)CCN(C(=O)N[C@@H](Cc2ccccc2)C(=O)OC)CC1               TGI        > 100 µM
 4  CCN(CC)CCS(=O)c1c2cc(OC)ccc2nc2ccc(OC)cc12 (stereo not drawn)               TGI         32.3 µM
 5  CC1=Cc2cc3[n-]c(cc4nc(cc5[n-]c(cc1n2)cc5C)C(C)=C4CCC(=O)O)c(CCC(=O)O)c3C.[Pd+2]               TGI         19.6 µM
 6            C[N+]1(C)CCC(C#N)(c2ccccc2)CC1               TGI        > 100 µM
 7  CSc1cc(Cl)c(C)cc1S(=O)(=O)NC(=O)NNc1ccc(F)c(Cl)c1               TGI        > 100 µM
 8  [C-]#[O+].[C-]#[O+].[Ir].[O-]c1cccc2cccnc12               TGI        > 100 µM
 9  O=C1C(=O)c2ccccc2C(O)=C1C(CCc1ccccc1)C1=C(O)c2ccccc2C(=O)C1=O               TGI         30.9 µM
10  COC(=O)C(Nc1ccc(OC)cc1)c1ccccc1 (stereo not drawn)               TGI        > 100 µM
11               N=C1C(=N)c2ccccc2-c2ccccc21               TGI         1.53 µM
12  CC(C(=O)Oc1ccc2ccccc2c1-c1c(O)ccc2ccccc12)c1ccccc1 (stereo not drawn)               TGI         26.8 µM
